Molecular target: T1, monkey SEMA4D, full length, on CHO-K1 cells (CHO-K1 cSEMA4D) (monkey)
T1 construct: whole, on cells; also called monkey SEMA4D recombinant cells
Assay: FACS, CHO-K1 cSEMA4D cells; Ab 0.534 nM
experimental.endpoint: MFI

Exercise: // Input: 37C4F7 (antibody, V domains shown, Mouse monoclonal antibody purified from hybridoma supernatant on protein A) VH: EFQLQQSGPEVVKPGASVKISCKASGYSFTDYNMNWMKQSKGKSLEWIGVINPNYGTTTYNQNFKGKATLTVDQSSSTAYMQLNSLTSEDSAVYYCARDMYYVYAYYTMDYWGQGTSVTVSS VL: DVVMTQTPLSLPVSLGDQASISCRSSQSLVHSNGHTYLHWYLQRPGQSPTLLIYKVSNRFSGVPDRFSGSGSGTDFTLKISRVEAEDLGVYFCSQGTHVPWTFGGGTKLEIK . Output its MFI only.
Key: 760
